Recorded measurements of activation, one per entry
Target: Muscarinic acetylcholine receptor M1 (Homo sapiens) (UniProt P11229)
Sequence (P11229 whole entry, looked up): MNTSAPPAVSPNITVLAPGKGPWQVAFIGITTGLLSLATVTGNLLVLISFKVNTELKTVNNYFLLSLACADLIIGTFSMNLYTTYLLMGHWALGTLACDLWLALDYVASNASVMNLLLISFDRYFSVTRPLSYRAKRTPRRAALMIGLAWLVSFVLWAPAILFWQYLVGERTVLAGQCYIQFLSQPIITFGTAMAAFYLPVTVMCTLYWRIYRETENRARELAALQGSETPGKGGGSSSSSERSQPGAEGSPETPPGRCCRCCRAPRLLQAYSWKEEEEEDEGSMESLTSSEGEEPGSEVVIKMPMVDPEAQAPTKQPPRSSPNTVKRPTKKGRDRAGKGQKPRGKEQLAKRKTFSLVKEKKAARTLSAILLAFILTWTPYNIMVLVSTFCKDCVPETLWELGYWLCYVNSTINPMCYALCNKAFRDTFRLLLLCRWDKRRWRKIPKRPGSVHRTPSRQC
Assay: CHRM1 PAMs potentiating acetylcholine calcium signal – CHO-K1 cells, Fluo-8 calcium fluorescence, 1536-well, primary screen (AID 588819)
Details: CHO-K1 hM1, Fluo-8 calcium fluorescence, ACh EC20; at 3 µM; stronger effect = higher value; 0% = ACh EC20, 100% = maximal ACh
In all, about 360,000 compounds went through this assay and about 320 (0.089%) were called active. The sample holds actives, similar compounds and a random draw of the others, so the mix is not that of the screen.

- compound: "O=c1[nH]c(CN2CCN(S(=O)(=O)c3ccc4c(c3)OCCO4)CC2)nc2sc3c(c12)CCCC3"
  activation / %: 12.9
- compound: "CN=C(Nc1cccc(S(=O)(=O)N2CCOCC2)c1)c1ccccc1"
  activation / %: -5.57
- compound: "CC(C)(C)NC(=O)COC(=O)c1cc(Cl)ccc1[N+](=O)[O-]"
  activation / %: 4.45
- compound: "Cc1ccc(-n2c(CNc3ccc(F)cc3)nnc2SCC(=O)N2CCOCC2)cc1"
  activation / %: 7.13
- compound: "COc1ccccc1C(=O)NCC(=O)OCC(=O)Nc1nnc(-c2ccccc2)o1"
  activation / %: 7.11
- compound: "O=C(Cn1nc(Cc2cccnc2)c2ccccc2c1=O)NCC1COc2ccccc2O1 (centres undefined)"
  activation / %: 9.27
- compound: "O=C(CN1C(=O)C2C3C=CC(C3)C2C1=O)NCC1COc2ccccc2O1 (centres undefined)"
  activation / %: 19.5
- compound: "COc1ccc(NC(=O)c2cnc(NS(=O)(=O)c3ccccc3)nc2)cc1"
  activation / %: 29.7
- compound: "Nc1nnnn1/N=C/c1cccc(Br)c1"
  activation / %: 11.8
- compound: "CCCCNCc1ccc(SC)cc1"
  activation / %: 25.2
- compound: "O=C(Nc1ccc(F)cc1F)N1CCCN(CCOc2ccccc2)CC1"
  activation / %: 5.19
- compound: "COCCn1cnc2c1c(=O)n(CC(=O)NN)c(=O)n2Cc1ccccc1"
  activation / %: 13.3
- compound: "CS(=O)(=O)N(CC(=O)NC1CCCC1)Cc1ccc(F)cc1"
  activation / %: 0.34
- compound: "COC(=O)c1ccc(C(=O)Nc2cc(Cl)ccc2Cl)cc1NC(=O)c1ccccc1C"
  activation / %: 7.99
- compound: "O=C(O)C1CCN1C1CCCCC1 (centres undefined)"
  activation / %: 3.48
- compound: "Oc1cccc(CCc2ccccn2)c1"
  activation / %: 4.71
- compound: "CC(C)N1CCC(N2CCN(Cc3cccnc3)CC2CCO)CC1 (centres undefined)"
  activation / %: 7.42
- compound: "COc1ccccc1NC(=O)C1CCCN1S(=O)(=O)c1ccc(Cl)cc1 (centres undefined)"
  activation / %: 28.2
- compound: "O=C(O)CN1C(=O)CC(Cc2ccccc2)C1=O (centres undefined)"
  activation / %: 11.7
- compound: "O=C(CCc1ccccc1)Nc1ccnn1C1CCN(Cc2ccc(OCCO)cc2)CC1"
  activation / %: -2.48
- compound: "O=C1Nc2ccc(Br)cc2/C1=N/N=C/C1=C(N2CCOCC2)C(=C\\c2ccccc2)/CC1"
  activation / %: 19.2
- compound: "COc1ccc(-n2nc3c(c2NC(=O)c2ccc(N4C(=O)CCC4=O)cc2)CSC3)cc1"
  activation / %: 1.99
- compound: "O=C(NCc1ccc(Cl)cc1)c1cc(=O)nc2sc(-c3ccccc3)nn12"
  activation / %: -4.02
- compound: "Cc1nn(Cc2ccccc2)c(C)c1C(=O)NCCCN1CCCC1=O"
  activation / %: 3.09
- compound: "CCC1(CC)NC(=O)N(CC(=O)OCC(=O)NC(=O)c2ccccc2)C1=O"
  activation / %: 5.54
- compound: "O=C(c1cncc(Br)c1)N1CCN(c2ccc([N+](=O)[O-])cc2)CC1"
  activation / %: -20
- compound: "O=S(=O)(Nc1ccccc1)c1ccc(NS(=O)(=O)c2cccs2)cc1"
  activation / %: 11.7
- compound: "Cc1ccc(N2C(=O)c3ccccc3C2(O)c2ncc[nH]2)cc1 (centres undefined)"
  activation / %: 8.87
- compound: "COc1ccc(Cl)cc1NC(=O)COc1ccc2c(c1)OCO2"
  activation / %: 7.62
- compound: "NC(=O)C1CCN(Cc2nc3c(Br)cc(Br)cc3c(=O)[nH]2)CC1"
  activation / %: 8.06
- compound: "O=C(Nc1ccc(S(=O)(=O)Nc2ncccn2)cc1)c1cncc(Br)c1"
  activation / %: 0.19
- compound: "Nc1nnnn1/N=C/c1cccs1"
  activation / %: 1.93
- compound: "O=C(Cn1cnc2ccccc2c1=O)NCC1COc2ccccc2O1 (centres undefined)"
  activation / %: 3.11
- compound: "CC(C)c1nnc(NC(=O)C2CCCN2S(=O)(=O)c2ccc(Cl)cc2)s1 (centres undefined)"
  activation / %: 10.2
- compound: "COC(=O)c1ccc2ccccc2c1OC1OC(CO)C(O)C(O)C1NC(C)=O (centres undefined)"
  activation / %: 9.3
- compound: "Nc1nnnn1/N=C/c1cc([N+](=O)[O-])ccc1O"
  activation / %: 26.2
- compound: "O=C(O)c1ccc(NN=CC2=C(N3CCOCC3)/C(=C/c3ccccc3)CC2)cc1"
  activation / %: 1.33
- compound: "CC(C)(C)NC(=O)CN(C(=O)c1ccc(Cl)nc1)c1cccc2ccccc12"
  activation / %: 2.85
- compound: "CC1CC(=O)Nc2ccccc2N1C(=O)COc1ccc2cc(Br)ccc2c1 (centres undefined)"
  activation / %: 12.5
- compound: "COc1ccc(NS(=O)(=O)c2ccc(NC(=O)c3ccc(N(C)S(C)(=O)=O)cc3)cc2)cc1"
  activation / %: 8.88
- compound: "CN1CCC(=NNC(=O)c2ccc(N(Cc3ccc(Cl)cc3)S(C)(=O)=O)cc2)CC1"
  activation / %: 4.92
- compound: "CC1(c2nnc(-c3ccncc3)o2)CC(c2cccnc2)=NO1 (centres undefined)"
  activation / %: -4.79
- compound: "COc1ccc(CN2CC[C@H]3C=CC[C@@H](C(=O)N4CCOCC4)[C@H]3C2=O)cc1OC"
  activation / %: 1.94
- compound: "CCn1c(-c2cccnc2Cl)nc2cc(C)c(C)cc21"
  activation / %: 2.37

----------
Target: Muscarinic acetylcholine receptor M1 (Homo sapiens) (UniProt P11229)
Assay: CHRM1 PAMs potentiating acetylcholine calcium signal – CHO-K1 cells, Fluo-8 calcium fluorescence, 1536-well, primary screen (AID 588819)
Settings: CHO-K1 hM1, Fluo-8 calcium fluorescence, ACh EC20; at 3 µM; stronger effect = higher value; 0% = ACh EC20, 100% = maximal ACh
The whole screen tested about 360,000 compounds, of which about 320 (0.089%) were called active. The sample as a whole holds a higher share of actives than the screen did.
valueType: activation (%)

- compound: "CCOc1ccc(S(=O)(=O)N2CCN(C(=O)c3oc4ccccc4c3C)CC2)cc1"
  valueType: "activation"
  unitLabel: "%"
  testValue: 24.4
- compound: "CCn1c(O)c(N=NC2=NC(=O)CS2)c2cc(C)ccc21"
  valueType: "activation"
  unitLabel: "%"
  testValue: -1.89
- compound: "CCN(C(=O)COC(=O)/C=C/c1nc2ccccc2s1)C1CCS(=O)(=O)C1 (stereo not drawn)"
  valueType: "activation"
  unitLabel: "%"
  testValue: -0.52
- compound: "COc1ccc(S(=O)(=O)N2CCN(C(=O)c3cc(C)oc3C)CC2)cc1"
  valueType: "activation"
  unitLabel: "%"
  testValue: 10.8
- compound: "C/C(=N/NC(=O)c1ccn(C)n1)c1ccncc1"
  valueType: "activation"
  unitLabel: "%"
  testValue: 33.2
- compound: "C/C(=N/NC(=O)c1ccncc1)c1ccc2c(c1)OCO2"
  valueType: "activation"
  unitLabel: "%"
  testValue: 6.79
- compound: "CC(C)CCNC(=O)C1CCCN(S(=O)(=O)c2ccc(F)cc2)C1 (stereo not drawn)"
  valueType: "activation"
  unitLabel: "%"
  testValue: 3.91
- compound: "O=C(NCc1csc(-c2cccs2)n1)C1CC1"
  valueType: "activation"
  unitLabel: "%"
  testValue: 9.22
- compound: "CSc1ccccc1C(=O)Nc1cccc(C(C)=O)c1"
  valueType: "activation"
  unitLabel: "%"
  testValue: -2.71
- compound: "CCOC(=O)C(=O)C1C(=O)Nc2ccccc21 (stereo not drawn)"
  valueType: "activation"
  unitLabel: "%"
  testValue: 1.1
- compound: "COc1ccc(C(=O)NCC2CCCN2S(=O)(=O)c2cccs2)cc1OC (stereo not drawn)"
  valueType: "activation"
  unitLabel: "%"
  testValue: 6.88
- compound: "CCOc1ccc2ccccc2c1/C=N/NC(=O)c1c(C)cc(C)[nH]c1=O"
  valueType: "activation"
  unitLabel: "%"
  testValue: 7.97
- compound: "C=Cn1c(C(=O)O)ccc1-c1ccc(OC)cc1"
  valueType: "activation"
  unitLabel: "%"
  testValue: -16.6
- compound: "CSc1nc(C)cc(SC(C(C)=O)C(=O)Nc2ccccc2)n1 (stereo not drawn)"
  valueType: "activation"
  unitLabel: "%"
  testValue: 23.1
- compound: "Cc1ccc(N2CC(C(=O)Nc3cc(Cl)ccc3-n3cncn3)CC2=O)cc1 (stereo not drawn)"
  valueType: "activation"
  unitLabel: "%"
  testValue: 8.82
- compound: "O=C(Cc1ccc(NC(=O)C2CCCN(C(=O)C3CCCCC3)C2)cc1)Nc1cccc(C(=O)N2CCCCC2)c1 (stereo not drawn)"
  valueType: "activation"
  unitLabel: "%"
  testValue: 3.87
- compound: "CCCn1nc(C(=O)OCc2nc(N)nc(Nc3ccccc3C)n2)c2ccccc2c1=O"
  valueType: "activation"
  unitLabel: "%"
  testValue: 11.4
- compound: "Cc1ccc(S(=O)(=O)N2CCOCC2)cc1NC(=O)CSc1nnc(N)s1"
  valueType: "activation"
  unitLabel: "%"
  testValue: 3.59
- compound: "CCn1c(CN2C(=O)CSc3ccccc32)n[nH]c1=S"
  valueType: "activation"
  unitLabel: "%"
  testValue: -0.34
- compound: "COc1cc(NC(=S)N2CCCC(C)C2)c(OC)cc1Cl (stereo not drawn)"
  valueType: "activation"
  unitLabel: "%"
  testValue: 4.79
- compound: "Cc1c(Cl)cnc(NC(=O)COC(=O)C2CCCC2)c1Cl"
  valueType: "activation"
  unitLabel: "%"
  testValue: 4.9
- compound: "CC(=NNC(=O)c1ccncc1)c1ccc(Cl)c(Cl)c1"
  valueType: "activation"
  unitLabel: "%"
  testValue: -2.62
- compound: "CCc1cccc(C)c1NS(=O)(=O)c1c(C)nc2sccn2c1=O"
  valueType: "activation"
  unitLabel: "%"
  testValue: 4.98
